# experimentalSystem: Proto-oncogene tyrosine-protein kinase Src (Homo sapiens);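 also: values are averaged inhibition of Src, tested against the GSK PKIS kinase inhibitor set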
# experimentalParameters: at 0.1 µM
readoutType: inhibition (%)

INSERT INTO measurements (chemsmiles, unitdescriptor, reading) VALUES
  ('CC(C)c1ccc(Nc2nccc(-c3cnn4ncccc34)n2)cc1', '%', 1.55),
  ('CS(=O)(=O)CCNCc1nc(-c2ccc3ncnc(Nc4ccc(OCc5cccc(C(F)(F)F)c5)cc4)c3c2)cs1', '%', 6.29),
  ('Cc1nc(-c2ccccc2)n2nc(NCCCN3CCOCC3)ncc12', '%', 6.46),
  ('COc1ccc(-c2nn3ncccc3c2-c2ccnc(Nc3cccc(C(F)(F)F)c3)n2)cc1', '%', 6.2),
  ('NS(=O)(=O)c1ccc(-c2cc3ccncc3cc2OCc2ccccc2)cc1', '%', -0.21);
